Just for reference, patent US20080269241A1 is where these values come from.

- target.desc: human cathepsin S (CatS) (Homo sapiens, UniProt P25774)
- Construct: made in house; host or cells: baculovirus system (insect cells)
- Sequence (P25774 115-331): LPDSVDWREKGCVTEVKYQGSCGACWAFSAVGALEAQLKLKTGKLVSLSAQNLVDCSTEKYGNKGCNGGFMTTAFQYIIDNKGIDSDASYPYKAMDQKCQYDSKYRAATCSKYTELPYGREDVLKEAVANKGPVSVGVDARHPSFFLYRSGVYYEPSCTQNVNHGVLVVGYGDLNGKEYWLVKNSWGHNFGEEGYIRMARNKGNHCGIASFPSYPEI
- experiment.summary: Recombinant human cathepsin S (CatS) fluorogenic substrate inhibition assay
- Format: biochemical
- recorded.conditions: recombinant human CatS, 10 μM Z-Valine-Valine-Arginine-AMC, pH 5.0; average of results obtained; read-out: CatS IC50
measure: IC50 (nM)
One number for each entry, in nM.

# example entries with known answers
COc1ccccc1C1CCN(CC(O)Cn2nc(-c3ccc(C(F)(F)F)c(CNC(=O)C=C(C)C)c3)c3c2CCN(S(C)(=O)=O)C3)CC1 (stereo not drawn)    10
CS(=O)(=O)N1CCc2c(c(-c3ccc(C(F)(F)F)c(CNC(=O)CN4CCS(=O)(=O)CC4)c3)nn2CCCN2CCC(N3CCCC3=O)CC2)C1    380
CS(=O)(=O)N1CCc2c(c(-c3ccc(Cl)c(NS(=O)(=O)c4ccccc4)c3)nn2CCCN2CCN(c3cccc(Cl)c3)CC2)C1    700

Give IC50 for each of the items listed below.
1. CC(C)=CC(=O)NCc1cc(-c2nn(CC(O)CN3CCC(c4cccc(O)c4)CC3)c3c2CN(S(C)(=O)=O)CC3)ccc1C(F)(F)F (stereo not drawn)
2. CS(=O)(=O)N1CCc2c(c(-c3ccc(Cl)c(CNC(=O)c4ccc(F)cc4)c3)nn2CC(O)CN2CCC(N3CCCC3)CC2)C1 (stereo not drawn)
3. CS(=O)(=O)N1CCc2c(c(-c3ccc(C(F)(F)F)c(CNC(=O)c4cc5c(s4)CCC5)c3)nn2CC(O)CN2CCC(N3CCCC3=O)CC2)C1 (stereo not drawn)

Result:
1. 10
2. 100
3. 30

---

Task for the reader: assign each of the following compounds its reported log10 IC50.
- target.desc: human cathepsin S (CatS) (Homo sapiens, UniProt P25774)
- Construct: made in house; host or cells: baculovirus system (insect cells)
- experiment.summary: Recombinant human cathepsin S (CatS) fluorogenic substrate inhibition assay
- Type: biochemical
- recorded.conditions: recombinant human CatS, 10 μM Z-Valine-Valine-Arginine-AMC, pH 5.0; average of results obtained; read-out: CatS IC50
Please keep in mind that the values are log10 of IC50 expressed in nM.

CS(=O)(=O)N1CCc2c(c(-c3ccc(Cl)c(NS(=O)(=O)Cc4ccccc4)c3)nn2CCCN2CCN(c3cccc(Cl)c3)CC2)C1    2.83

Parameter requested: log10 IC50. Apply to each item below.
1. CN(C)c1ccc(C(=O)Nc2cc(-c3nn(CCCN4CCN(c5cccc(Cl)c5)CC4)c4c3CN(S(C)(=O)=O)CC4)ccc2Cl)cc1
2. CC(C)CC(=O)NCc1cc(-c2nn(CCCN3CCC(N4CCCC4=O)CC3)c3c2CN(S(C)(=O)=O)CC3)ccc1C(F)(F)F
3. COc1ccc(C(=O)Nc2cc(-c3nn(CCCN4CCN(c5cccc(Cl)c5)CC4)c4c3CN(S(C)(=O)=O)CC4)ccc2Cl)cc1

Result:
1. 2.67
2. 1.90
3. 2.88

Dear colleague, could you please provide log10 IC50 for the compounds listed below?
1. Cc1ccc(C(=O)Nc2cc(-c3nn(CCCN4CCN(c5cccc(Cl)c5)CC4)c4c3CN(S(C)(=O)=O)CC4)ccc2Cl)cc1
2. CS(=O)(=O)N1CCc2c(c(-c3ccc(C(F)(F)F)c(CNC(=O)c4ccco4)c3)nn2CC(O)CN2CCC(N3CCCC3=O)CC2)C1 (stereo not drawn)
3. CS(=O)(=O)N1CCc2c(c(-c3ccc(C(F)(F)F)c(CNC(=O)c4ccc(-c5ccccn5)s4)c3)nn2CC(O)CN2CCC(N3CCCC3=O)CC2)C1 (stereo not drawn)
4. CS(=O)(=O)c1ccc(C(=O)NCc2cc(-c3nn(CC(O)CN4CCC(N5CCCC5=O)CC4)c4c3CN(S(C)(=O)=O)CC4)ccc2C(F)(F)F)s1 (stereo not drawn)
5. CS(=O)(=O)N1CCc2c(c(-c3ccc(C(F)(F)F)c(CNC(=O)c4cncs4)c3)nn2CC(O)CN2CCC(N3CCCC3=O)CC2)C1 (stereo not drawn)

Result:
[2.61, 2.28, 2.18, 2.15, 2.58]

Give log10 IC50 for each of the items listed below.
1. CC(C)CC(=O)NCc1cc(-c2nn(CC(O)CN3CCC(c4ccccn4)CC3)c3c2CN(S(C)(=O)=O)CC3)ccc1C(F)(F)F (stereo not drawn)
2. CS(=O)(=O)N1CCc2c(c(-c3ccc(Cl)c(CNC(=O)c4ccc(F)cc4)c3)nn2CC(O)CN2CCC(N3CCOCC3)CC2)C1 (stereo not drawn)
3. CS(=O)(=O)N1CCc2c(c(-c3ccc(C(F)(F)F)c(CNC(=O)CN4CCCC4)c3)nn2CCCN2CCC(N3CCCC3=O)CC2)C1
4. CS(=O)(=O)N1CCc2c(c(-c3ccc(C(F)(F)F)c(CNc4nc5ccccc5[nH]4)c3)nn2CC(O)CN2CCC(N3CCCC3=O)CC2)C1 (stereo not drawn)
5. CC(C)CCNCc1cc(-c2nn(CCCN3CCC(N4CCCC4=O)CC3)c3c2CN(S(C)(=O)=O)CC3)ccc1C(F)(F)F

Result:
1. 1.00
2. 1.78
3. 2.90
4. 3.62
5. 2.48
